# credit: patent US11453711B2

- experimental_protocol: Body weight and food intake in C57BL/6 mice, fusion protein conjugates, 30 nmol/kg daily 10 days
- Type: in vivo
- Procedure: 10 week old male C57BL/6 mice were injected everyday subcutaneously with 15 nmol/kg of the fusion protein conjugates (i.e., MLC002, MLC 004, MLC 005, MLC 006, MLC 007, MLC 008, and MLC 009) for 14 days. Food intake and body weight were measured daily and five animals were used for each treatment group. Body weight (BW) was monitored for each individual animal, but food intake for each group animals was measured together. […] Data were calculated in the same way as described above. […]
Each item that follows carries a reported Body weight reduction at 30 nmol/kg (% reduction compared to vehicle)(Day11).
property_measured: Body weight reduction at 30 nmol/kg (% reduction compared to vehicle)(Day11)

INSERT INTO measurements (molecule, result) VALUES
  ('MLC030: fusion polypeptide SEQ ID NO: 277 conjugated with Moiety A at 15K of Linker (conjugate, Moiety A conjugated at linker K15) HGEGTFTSDVSSYLEEQAAREFIAWLVRGGGGQEPGQEPGQEPGQKPGQEPGQEPGQEPGQEPGAQPGAQPGAQPGAQPGAQPGAQPGAQPGAQPGAQPGAQPGAQPGAQPARQGDHCPLGPGRCCRLHTVRASLEDLGWADWVLSPREVQVTMCIGACPSQFRAANLHAQIKTSLHRLRPDTVPAPCCVPASYNPMVLIQRTDTGVSLQTYDDLLARDCHCI', '22.0%'),
  ('MLC043: fusion polypeptide SEQ ID NO: 326 conjugated with Moiety A at 26K of GLP-1 (conjugate, Moiety A conjugated at K26) HGEGTFTSDVSSYLEEQAAKEFIAWLVRGGGGQEPGAQPGQEPGAQPGQEPGAQPGQEPGAQPGQEPGAQPGQEPGAQPGAQPGAQPGAQPARQGDHCPLGPGRCCRLHTVRASLEDLGWADWVLSPREVQVTMCIGACPSQFRAANLHAQIKTSLHRLRPDTVPAPCCVPASYNPMVLIQRTDTGVSLQTYDDLLARDCHCI', '17.4%');
